# system-name: human adenosine A2A receptor (Homo sapiens)
# Construct: expressed in transfected cells; host or cells: CHO cells, Semliki Forest virus expression system; membrane preparation
# Sequence (P29274 whole entry): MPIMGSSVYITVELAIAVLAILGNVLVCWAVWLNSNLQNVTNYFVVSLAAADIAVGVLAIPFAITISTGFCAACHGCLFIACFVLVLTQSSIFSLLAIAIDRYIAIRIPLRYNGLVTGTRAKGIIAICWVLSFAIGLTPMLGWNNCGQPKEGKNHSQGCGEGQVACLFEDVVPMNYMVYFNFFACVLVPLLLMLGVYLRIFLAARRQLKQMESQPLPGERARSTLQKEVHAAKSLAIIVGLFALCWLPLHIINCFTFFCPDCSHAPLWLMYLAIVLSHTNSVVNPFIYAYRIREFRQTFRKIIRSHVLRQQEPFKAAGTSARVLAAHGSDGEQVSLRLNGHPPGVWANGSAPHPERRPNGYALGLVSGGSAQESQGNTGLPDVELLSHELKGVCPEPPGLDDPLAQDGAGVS
# method-summary: Human adenosine A2A receptor [3H]-SCH-58261 binding assay
# experimental-conditions: calculated ratio of the affinity to the HA1 receptor to the HA2a receptor
Note to self: use true (1) only for selectivity (A1/A2a) readings below 20; a reading exactly at 20 still gets false (0).

>>> category_label("CC(C)N(Cc1ccccc1)C(=O)c1cc(N)n2nc(-c3cc(Br)co3)nc2c1 [Example 173]")
"true (1)"
>>> category_label("C=CCN(C(=O)c1cc(N)n2nc(-c3ccc(Br)o3)nc2c1)C1CCCCC1 [Example 348]")
"false (0)"
>>> category_label("Nc1cc(C(=O)N2CCCCCC2)cc2nc(-c3nccs3)nn12 [Example 317]")
"false (0)"
>>> category_label("CC(C)N(C(=O)c1cc(N)n2nc(-c3ccc(Br)o3)nc2c1)C(C)C [Example 276]")
"false (0)"

Consider now this further compound.
Task item: Just wondering, is selectivity (A1/A2a) of CN(C(=O)c1cc(N)n2nc(-c3ccccn3)nc2c1)C1CCCCC1 [Example 33] below 20?
Reply: true (1)
